- Tested on: YAP
- assayProcedure: TEAD-LUC activation assay (293A-TEAD-LUC reporter)
- Assay type: cell-based
- conditionInfo: Homo sapiens, Table 4; read-out: TEAD-LUC activation assay EC50
pEC50: −log10 of the molar value.
Each record here notes measured pEC50.
propertyMeasured: pEC50

compound	propertyMeasured	result
O=C(NCCCN1CCOCC1)c1cc(-c2ccc(F)cc2)on1	pEC50	< 4.70
O=C(c1cc(-c2ccccc2)on1)N1CCCN(c2cccnn2)CC1	pEC50	< 4.70
CC(C)(CO)NC(=O)c1cc(-c2ccccc2)on1	pEC50	< 4.70
CC(=O)N1CCCN(C(=O)c2cc(-c3ccccc3)on2)CC1	pEC50	< 4.70
CN(C)CCN(C(=O)c1cc(-c2ccccc2)on1)c1ccccc1	pEC50	< 4.70
CCN1CCN(C(CNC(=O)c2cc(-c3ccccc3)on2)c2ccc(OC)cc2)CC1 (stereo not shown)	pEC50	< 4.70
CC(=O)Nc1cccc(NC(=O)c2cc(-c3ccccc3)on2)c1	pEC50	< 4.70
O=C(Nc1ccccc1-n1cncn1)c1cc(-c2ccccc2)on1	pEC50	< 4.70
COc1ccc(OC)c(-c2cc(C(=O)NCCc3nc(C)cs3)no2)c1	pEC50	< 4.70
O=C(c1cc(-c2ccccc2)on1)N1CCC(Nc2ncccn2)CC1	pEC50	< 4.70
O=C(NCCCN1CCOCC1)c1cc(-c2ccc(Cl)cc2)on1	pEC50	< 4.70
CCN1C(=O)CCc2cc(NC(=O)c3cccc(Br)c3)ccc21	pEC50	5.00
CC1CN(C(=O)CCNC(=O)c2cc(-c3ccccc3)on2)CC(C)O1 (stereo not shown)	pEC50	5.17
O=C(NCCc1ccccc1)c1n[nH]c2ccccc12	pEC50	< 4.70
CN1[C@H]2CC[C@@H]1CN(C(=O)c1cc(-c3ccccc3)on1)CC2	pEC50	< 4.70
CCN1C(=O)CCc2cc(NC(=O)c3n[nH]c4ccccc34)ccc21	pEC50	5.70
CCN(CC)CCCNC(=O)c1cc(-c2ccc(Cl)cc2)on1	pEC50	< 4.70
Cc1ccc(-c2cc(C(=O)NCCC(=O)N(C)Cc3ccccc3)no2)cc1	pEC50	< 4.70
CC(=O)c1ccc(NC(=O)c2cc(-c3ccncc3)[nH]n2)cc1	pEC50	< 4.70
CCCN1C(=O)CCc2cc(NC(=O)c3ccn(CC)n3)ccc21	pEC50	5.52
O=C(NCCCn1cccc1)c1cc(-c2ccccc2)on1	pEC50	5.99
COc1ccccc1-c1cc(C(=O)N2CCCC2c2cc(C)no2)no1 (stereo not shown)	pEC50	< 4.70
Cc1ccc(C2CCCN2C(=O)c2cc(-c3ccc4c(c3)OCO4)on2)cc1 (stereo not shown)	pEC50	< 4.70
O=C(c1cc(-c2ccccc2)on1)N1CCC(n2cccc2)CC1	pEC50	< 4.70
O=C(NCCCn1cncn1)c1cc(-c2ccccc2)on1	pEC50	5.49

###

Each record here notes measured EC50.
- System: YAP
- assayProcedure: TEAD-LUC activation assay (293A-TEAD-LUC reporter)
- Assay type: cell-based
- conditionInfo: Homo sapiens, Table 3; read-out: TEAD-LUC activation assay EC50
propertyMeasured: EC50

entrySmiles	result
O=C(NCCNc1ccccc1)c1cc(-c2ccccc2)on1	> 20 µM
NC(=O)c1ccc(-c2cc(C(=O)NCCCc3nccs3)no2)cc1	> 20 µM
COc1cccc(CCNC(=O)c2cc(-c3ccccc3)on2)c1	> 20 µM
CN(CCC#N)C(=O)c1cc(-c2ccccc2)on1	> 20 µM
O=C(NCCCc1nccs1)c1noc2ccccc12	> 20 µM
O=C(NCCCn1ccnn1)c1cc(-c2cncnc2)on1	> 20 µM

###

- assayProcedure: Cytotoxicity in the TEAD-LUC activation assay
- conditionInfo: human
propertyMeasured: IC50

compound	result
CN(CC(F)F)C(=O)c1cc(-c2ccccc2)on1	12 µM
O=C(NCCNc1ccccc1)c1cc(-c2ccccc2)on1	> 20 µM
O=C(NC12CC(C(F)(F)F)(C1)C2)c1cc(-c2ccccc2)on1	> 20 µM
O=C(NC1CCCc2ccccc21)c1cc(-c2ccccc2)n[nH]1 (stereo not shown)	> 20 µM
O=C(NCCc1cccc(F)c1)c1cc(-c2ccccc2)on1	> 20 µM
O=C(NCCCn1cccc1)c1noc(-c2ccccc2)n1	> 20 µM
O=C(NCCCn1ccc2ccccc21)c1cc(-c2ccccc2)on1	> 20 µM
O=C(NCCCn1ccnn1)c1cc(-c2ccc(OC(F)(F)F)cc2)on1	> 20 µM
O=C(NCCCn1cccc1)c1noc2c1OCc1ccccc1-2	> 20 µM
O=C(NCCCc1nccs1)c1cc(-c2ccccc2)on1	13.7 µM

###

- Test system: YAP
- assayProcedure: TEAD-LUC activation assay (293A-TEAD-LUC reporter)
- Format: cell-based
- conditionInfo: Homo sapiens, Table 3; read-out: TEAD-LUC activation assay EC50
pEC50: −log10 of the molar value.
propertyMeasured: pEC50

compound	result
O=C(NCCCc1nccs1)c1cncc(C(F)(F)F)c1	< 4.70
O=C(NCCCc1nccs1)c1noc(-c2ccccc2)n1	< 4.70
O=C(NCCCn1ccnn1)c1cc(-c2ccc(Cl)cc2)on1	< 4.70
O=C(NCCCc1nccs1)c1ncoc1-c1ccccc1	< 4.70
Cc1ccc(CCNC(=O)c2cc(-c3ccccc3)on2)cc1	< 4.70
N#Cc1ccc(-c2cc(C(=O)NCCCn3cccc3)no2)cc1	< 4.70
O=C(NCCCn1ccc(-c2ccccc2)c1)c1cc(-c2ccccc2)on1	< 4.70
O=C(NCCCc1nccs1)c1cc(-c2ccc(-c3ccccc3)cc2)on1	< 4.70
O=C(NC1CC(OC(F)F)C1)c1cc(-c2ccccc2)on1 (stereo not drawn)	5.50
CN(C)CCN(C)C(=O)c1cc(-c2ccccc2)on1	< 4.70
CC(C)(NC(=O)c1cc(-c2ccccc2)on1)C(F)(F)F	< 4.70
CC(=O)N1CCN(CCCNC(=O)c2cc(-c3ccccc3)on2)CC1	5.36
O=C(NCCCc1nccs1)c1n[nH]c2ccccc12	< 4.70
COC(=O)N1CCN(CCCNC(=O)c2cc(-c3ccccc3)on2)CC1	5.47
CC(C)(C)OC(=O)NCCNC(=O)c1cc(-c2ccccc2)on1	5.45
